Origin of values: patent US12577206B2

- TARGET ENTITY: human FPR2 (Homo sapiens, UniProt P25090)
- Sequence (P25090 1-351): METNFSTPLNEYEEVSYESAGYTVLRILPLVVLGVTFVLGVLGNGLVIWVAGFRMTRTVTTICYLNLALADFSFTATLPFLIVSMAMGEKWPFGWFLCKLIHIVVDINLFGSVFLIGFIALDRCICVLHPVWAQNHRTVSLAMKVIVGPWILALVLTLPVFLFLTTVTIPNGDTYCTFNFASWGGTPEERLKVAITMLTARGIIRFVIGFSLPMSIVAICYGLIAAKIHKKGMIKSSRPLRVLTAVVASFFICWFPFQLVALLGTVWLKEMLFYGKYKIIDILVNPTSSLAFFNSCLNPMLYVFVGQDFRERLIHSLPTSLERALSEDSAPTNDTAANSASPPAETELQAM
- ASSAY COMMENT: FPR2 cyclic adenosine monophosphate (cAMP) assay
- CONDITION CONTEXT: CHO cells overexpressing human FPR2; forskolin 5 μM; inhibition of cAMP production; HTRF; read-out: hFPR2 cAMP2 EC50
PROPERTY LABEL: pEC50
Keep in mind that pEC50 stands for -log10 of concentration in molar terms.

**Q:** // returns reported pEC50 for input COc1cc(F)c(-c2c(NC(=O)c3ccc(OC(F)(F)F)cc3)c(=O)n(-c3ccc(C)cn3)n2C)c(F)c1
**A:** 7.74

More entries:
**Q:** // returns reported pEC50 for input COc1cc(F)c(-c2c(NC(=O)c3ccc(OC(F)F)cc3)c(=O)n(-c3cc(C4CCN(C)CC4)cc(C)n3)n2C)c(F)c1
**A:** 8.30

**Q:** // returns reported pEC50 for input COc1cc(F)c(-c2c(NC(=O)c3ccc(OC(F)F)cc3)c(=O)n(-c3ccccn3)n2C)c(F)c1
**A:** 7.80

**Q:** // returns reported pEC50 for input COc1cc(F)c(-c2c(NC(=O)c3ccc(C4CC4)cc3)c(=O)n(-c3ccc(C4CC4)cn3)n2C)c(F)c1
**A:** 7.23

**Q:** // returns reported pEC50 for input CCc1ccc(OCC(C)(C)O)nc1-n1c(=O)c(NC(=O)c2ccc(OC(F)F)cc2)c(-c2c(F)cc(OC)cc2F)n1C
**A:** 8.00

**Q:** // returns reported pEC50 for input COc1cc(F)c(-c2c(NC(=O)c3ccc(OC(F)F)cc3)c(=O)n(-c3nc(N4CCC(C)(O)C4)ccc3C(F)(F)F)n2C)c(F)c1 (centres unmarked) [Example 282]
**A:** 8.70

**Q:** // returns reported pEC50 for input COc1cc(N2C[C@@H](C)O[C@@H](C)C2)nc(-n2c(=O)c(NC(=O)c3ccc(OC(F)F)cc3)c(-c3c(F)cc(OC)cc3F)n2C)c1
**A:** 7.80

**Q:** // returns reported pEC50 for input COc1ccc(-c2c(NC(=O)c3ccc(OC(F)F)cc3)c(=O)n(-c3ncccc3C(F)(F)F)n2C)cc1
**A:** 7.89

**Q:** // returns reported pEC50 for input COC(=O)COc1ccc(C(F)(F)F)c(-n2c(=O)c(NC(=O)c3ccc(OC(F)F)cc3)c(-c3c(F)cc(OC)cc3F)n2C)n1
**A:** 8.40

**Q:** // returns reported pEC50 for input COc1cc(F)c(-c2c(NC(=O)c3ccc(OC(F)F)cc3)c(=O)n(-c3nc(N4CCC(C)(O)C4)ccc3C(F)(F)F)n2C)c(F)c1 (centres unmarked) [Example 284]
**A:** 8.70

**Q:** // returns reported pEC50 for input COc1cc(F)c(-c2c(NC(=O)c3ccc(OC(F)F)cc3)c(=O)n(-c3nc(NC(C)(C)C)ccc3C(F)(F)F)n2C)c(F)c1
**A:** 8.70
